Below: a set of entries, each annotated with reported In Vitro Efficacy Mycellium**.
Test system: Phaeoacremonium aleophilum
Test: In vitro mycelium growth test on malt agar medium
Type: cell-based
Settings: 50 ppm in malt agar, 22° C., colony diameter, Abbott formula

Solved cases below.
>>> data_value("O=C(NCCc1ncc(C(F)(F)F)cc1Cl)c1ccccc1C(F)(F)F")
"35%"
>>> data_value("Cc1nn(C)c(F)c1C(=O)Nc1ccccc1C(C)CC(C)C (stereo not shown)")
"62%"
>>> data_value("CC(C)(C)C(O)(CCc1ccc(Cl)cc1)Cn1cncn1 (stereo not shown)")
"100%"

Using the record for Cn1cc(C(=O)Nc2ccc(F)cc2-c2ccc(Cl)c(Cl)c2)c(C(F)F)n1 , report its In Vitro Efficacy Mycellium**.
69%
